Target: catalytic domain of human Bub1 (amino acids 704-1085) (Homo sapiens, UniProt O43683)
Construct: catalytic domain of human Bub1 (amino acids 704-1085); His6 (N); made in house; host or cells: Hi5 insect cells
Sequence (O43683 704-1085): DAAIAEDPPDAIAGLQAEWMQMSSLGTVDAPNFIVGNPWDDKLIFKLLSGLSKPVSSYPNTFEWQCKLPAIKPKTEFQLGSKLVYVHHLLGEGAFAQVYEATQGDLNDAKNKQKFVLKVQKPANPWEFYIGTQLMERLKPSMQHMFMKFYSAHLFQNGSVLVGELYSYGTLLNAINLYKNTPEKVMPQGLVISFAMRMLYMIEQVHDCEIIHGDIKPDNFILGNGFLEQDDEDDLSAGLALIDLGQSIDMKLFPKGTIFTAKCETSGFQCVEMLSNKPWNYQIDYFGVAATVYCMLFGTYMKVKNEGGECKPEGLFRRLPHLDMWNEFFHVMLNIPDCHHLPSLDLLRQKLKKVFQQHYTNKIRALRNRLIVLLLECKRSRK
Experiment: Bub1 kinase assay (TR-FRET)
Format: biochemical
Details: Biological Assay 1: Bub1 kinase assay median IC50, 10 μM ATP
Exercise: for every item that follows, state its recorded IC50.
Answers are plain numbers, in nM.

Completed entries (count: 2):
[[record]]
smiles_str = "COc1cnccc1Nc1nc(-c2nn(Cc3c(F)cc(OCCO)cc3F)c3ccccc23)nc2c1CN(CC(F)(F)F)C2"
recorded_metric = "IC50"
reading = 14

[[record]]
smiles_str = "COCCOc1cc(F)c(Cn2nc(-c3nc4c(c(Nc5ccncc5Cl)n3)CNC4)c3ccccc32)c(F)c1"
recorded_metric = "IC50"
reading = 38


Provide reported IC50 for each item, in the same order as listed.
1. COCCOc1cc(F)c(Cn2nc(-c3nc4c(c(Nc5ccncc5OC)n3)COCC4)c3ccccc32)c(F)c1
2. COCCOc1cc(F)c(Cn2nc(-c3nc4c(c(Nc5cc(C)ncc5C)n3)CCC4)c3ccccc32)c(F)c1
3. COCCOc1cc(F)c(Cn2nc(-c3nc4c(c(Nc5ccncc5OC)n3)CCC4)c3ccccc32)c(F)c1
4. COCCOc1cc(F)c(Cn2nc(-c3nc(CN4CCOCC4)cc(Nc4ccnnc4)n3)c3ccccc32)c(F)c1

1. 26
2. 130
3. 13
4. 26

Value lookup for IC50; key = `COCCOc1cc(F)c(Cn2nc(-c3nc4c(c(Nc5ccncn5)n3)CCC4)c3ccccc32)c(F)c1`
7
